Values from patent US20250289893A1

- target-of-assay: T1, human CD1d expressed on HEK-293 cells (human, UniProt P15813 20-335; P61769 21-119)
- T1 construct: also called HEK - CD1d
- assay-info: flow cytometry, HEK-293 cells, 10 µg/ml antibody
property-measured: Fluorescence Intensity Geomean (normalized to background) (fold over background)

| binder | recorded-number |
| --- | --- |
| 111 (VR12113) (antibody, V domains shown, also called OX111) VH: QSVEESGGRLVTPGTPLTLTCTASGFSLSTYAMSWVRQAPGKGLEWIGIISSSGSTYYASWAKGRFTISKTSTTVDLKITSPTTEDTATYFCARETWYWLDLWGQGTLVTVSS VL: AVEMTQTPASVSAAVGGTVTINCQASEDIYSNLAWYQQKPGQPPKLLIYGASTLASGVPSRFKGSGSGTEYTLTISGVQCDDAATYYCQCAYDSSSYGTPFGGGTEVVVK | 1.1 |
| 77A (VR11851) (antibody, V domains shown, also called OX77a; antibody 77a) VH: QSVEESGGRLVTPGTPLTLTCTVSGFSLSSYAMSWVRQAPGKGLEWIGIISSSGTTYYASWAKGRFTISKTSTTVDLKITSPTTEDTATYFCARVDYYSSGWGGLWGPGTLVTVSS VL: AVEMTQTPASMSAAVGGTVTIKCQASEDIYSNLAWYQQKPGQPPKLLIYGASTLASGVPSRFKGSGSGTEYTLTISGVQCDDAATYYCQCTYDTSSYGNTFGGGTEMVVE | 1 |
| 110 (VR12112) (antibody, V domains shown, also called OX110; antibody 110) VH: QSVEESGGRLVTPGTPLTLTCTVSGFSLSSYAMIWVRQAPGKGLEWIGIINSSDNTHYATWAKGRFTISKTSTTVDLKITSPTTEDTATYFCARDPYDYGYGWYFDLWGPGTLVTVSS VL: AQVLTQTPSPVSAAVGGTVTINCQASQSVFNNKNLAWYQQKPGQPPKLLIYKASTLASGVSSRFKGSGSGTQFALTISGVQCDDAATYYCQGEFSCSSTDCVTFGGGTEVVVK | 1 |
| 116 (VR12117) (antibody, V domains shown, also called OX116) VH: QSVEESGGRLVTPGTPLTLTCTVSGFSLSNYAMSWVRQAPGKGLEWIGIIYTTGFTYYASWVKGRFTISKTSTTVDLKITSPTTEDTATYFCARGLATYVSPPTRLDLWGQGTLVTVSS VL: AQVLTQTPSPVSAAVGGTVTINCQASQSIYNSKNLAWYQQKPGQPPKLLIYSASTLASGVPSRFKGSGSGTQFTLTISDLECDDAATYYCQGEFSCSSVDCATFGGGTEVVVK | 1.1 |
